Target: T1, IL-2 receptor βγ complex (human, UniProt P14784 27-551; P31785 23-369)
T1 sequence (looked up) 1: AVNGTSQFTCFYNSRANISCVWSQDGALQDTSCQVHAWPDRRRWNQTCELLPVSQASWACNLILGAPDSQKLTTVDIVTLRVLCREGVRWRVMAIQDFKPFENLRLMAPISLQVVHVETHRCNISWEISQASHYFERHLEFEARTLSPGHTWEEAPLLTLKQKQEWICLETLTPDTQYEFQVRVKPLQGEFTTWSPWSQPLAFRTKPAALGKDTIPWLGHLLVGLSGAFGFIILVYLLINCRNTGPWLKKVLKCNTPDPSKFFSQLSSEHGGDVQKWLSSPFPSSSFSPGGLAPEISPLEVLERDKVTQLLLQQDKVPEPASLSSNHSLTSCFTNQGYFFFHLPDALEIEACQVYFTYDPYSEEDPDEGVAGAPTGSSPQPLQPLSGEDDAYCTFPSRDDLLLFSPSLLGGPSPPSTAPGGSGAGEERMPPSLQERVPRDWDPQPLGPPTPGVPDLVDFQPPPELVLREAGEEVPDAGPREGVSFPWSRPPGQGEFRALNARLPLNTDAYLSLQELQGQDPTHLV
T1 sequence (looked up) 2: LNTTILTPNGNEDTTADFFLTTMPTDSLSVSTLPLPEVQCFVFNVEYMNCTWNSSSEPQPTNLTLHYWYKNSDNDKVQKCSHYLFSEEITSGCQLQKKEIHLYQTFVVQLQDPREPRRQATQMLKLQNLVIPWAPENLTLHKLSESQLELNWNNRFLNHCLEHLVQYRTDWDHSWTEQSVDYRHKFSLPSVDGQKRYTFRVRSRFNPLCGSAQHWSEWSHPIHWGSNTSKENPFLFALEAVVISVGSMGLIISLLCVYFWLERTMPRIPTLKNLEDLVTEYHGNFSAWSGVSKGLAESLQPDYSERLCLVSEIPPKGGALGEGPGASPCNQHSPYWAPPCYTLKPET
Experiment: cell-based or functional assay
Primed or numbered codes have the meaning given here. [ ]: non-standard residue; d: D form. Ygp″ = O-(8x polyethylene glycol-amino)-tyrosine; Yn3″ = O-(9x polyethylene glycol-azido)-tyrosine; hSer = N[C@@H](CCO)C(=O)O; Nle = CCCC[C@H](N)C(=O)O
MEASUREMENT_NAME: Average EC50, pSTAT5 Assay in NK cells (nM)
Answer in nM, number only, no unit symbol.

For CMP-326, Matriptase cleaved molecule (ligand, not fully specified; ends and bridges not checked; also: Lys9-Glu23 peptide bridge cut by matriptase, fragments left on side chains not given here) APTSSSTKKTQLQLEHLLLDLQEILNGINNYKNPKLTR[Nle]L[hSer][Yn3″]KF[Ygp″][Nle]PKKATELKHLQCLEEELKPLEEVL[hSer]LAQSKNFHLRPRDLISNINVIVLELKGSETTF[hSer]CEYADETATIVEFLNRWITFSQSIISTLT the binder record lists Average EC50, pSTAT5 Assay in NK cells as 17.6

Cited source for all entries: patent US20240376170A1
